STUDY_SYSTEM: POLγA:A467T (Homo sapiens, UniProt P54098, A467T)
Sequence (P54098 whole entry A467T): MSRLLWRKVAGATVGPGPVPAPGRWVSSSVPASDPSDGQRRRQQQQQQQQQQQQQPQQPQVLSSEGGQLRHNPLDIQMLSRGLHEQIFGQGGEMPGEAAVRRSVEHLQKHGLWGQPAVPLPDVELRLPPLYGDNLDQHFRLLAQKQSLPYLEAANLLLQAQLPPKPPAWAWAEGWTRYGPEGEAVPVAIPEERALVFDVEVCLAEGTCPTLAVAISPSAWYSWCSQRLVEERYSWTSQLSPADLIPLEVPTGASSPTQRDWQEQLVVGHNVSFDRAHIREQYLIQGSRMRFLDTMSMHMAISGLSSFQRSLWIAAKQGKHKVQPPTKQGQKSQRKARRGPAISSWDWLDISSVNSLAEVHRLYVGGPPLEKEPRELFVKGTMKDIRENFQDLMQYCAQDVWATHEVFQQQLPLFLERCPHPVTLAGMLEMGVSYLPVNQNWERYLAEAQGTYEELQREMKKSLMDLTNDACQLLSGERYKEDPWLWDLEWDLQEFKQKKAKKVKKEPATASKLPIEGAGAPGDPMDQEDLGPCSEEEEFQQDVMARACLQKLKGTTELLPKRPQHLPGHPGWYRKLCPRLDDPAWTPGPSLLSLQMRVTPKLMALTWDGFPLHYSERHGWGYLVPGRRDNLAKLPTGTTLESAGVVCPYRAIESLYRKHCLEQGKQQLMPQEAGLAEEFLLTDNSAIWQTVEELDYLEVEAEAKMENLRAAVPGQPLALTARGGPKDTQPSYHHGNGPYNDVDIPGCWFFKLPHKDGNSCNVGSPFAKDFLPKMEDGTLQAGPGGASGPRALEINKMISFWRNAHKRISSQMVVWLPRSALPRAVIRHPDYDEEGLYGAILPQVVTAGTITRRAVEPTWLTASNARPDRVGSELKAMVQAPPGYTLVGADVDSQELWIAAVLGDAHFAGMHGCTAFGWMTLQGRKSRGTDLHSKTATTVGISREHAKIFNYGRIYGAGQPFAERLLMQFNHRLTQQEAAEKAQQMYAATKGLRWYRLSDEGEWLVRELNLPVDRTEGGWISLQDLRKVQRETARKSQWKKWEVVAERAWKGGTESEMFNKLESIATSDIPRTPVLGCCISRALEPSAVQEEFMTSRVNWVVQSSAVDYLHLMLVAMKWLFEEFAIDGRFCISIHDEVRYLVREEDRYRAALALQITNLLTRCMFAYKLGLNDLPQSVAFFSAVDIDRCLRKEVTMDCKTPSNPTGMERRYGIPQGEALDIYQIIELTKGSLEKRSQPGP
Sequence (Q9UHN1 whole entry partner): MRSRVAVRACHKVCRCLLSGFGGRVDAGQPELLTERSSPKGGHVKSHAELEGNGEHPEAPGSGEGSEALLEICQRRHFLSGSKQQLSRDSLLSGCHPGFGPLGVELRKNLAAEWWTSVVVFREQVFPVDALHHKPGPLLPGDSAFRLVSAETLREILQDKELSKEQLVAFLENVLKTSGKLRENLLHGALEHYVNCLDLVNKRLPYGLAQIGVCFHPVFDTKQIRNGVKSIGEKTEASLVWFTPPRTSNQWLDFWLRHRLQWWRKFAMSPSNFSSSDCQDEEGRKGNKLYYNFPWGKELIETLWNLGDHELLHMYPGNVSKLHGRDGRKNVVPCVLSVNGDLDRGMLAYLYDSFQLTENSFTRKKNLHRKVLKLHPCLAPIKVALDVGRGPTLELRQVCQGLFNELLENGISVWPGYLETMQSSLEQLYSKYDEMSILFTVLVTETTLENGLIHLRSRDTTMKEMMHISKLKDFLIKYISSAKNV
RUN_DESCRIPTION: DNA polymerization assay, POLγA:A467T mutant
Type: biochemical
TEST_SETTINGS: stimulation of polymerase activity, primed M13mp18 ssDNA, 37° C. 2 hours; read-out: A467T AC50
ATTRIBUTE_MEASURED: AC50

COMPOUND: Cc1cc(S(=O)(=O)N[C@@H]2CCCN(C(=O)c3ccccc3)C2)c(C)cc1Cl
STUDY_SYSTEM: POLγA:A467T (Homo sapiens, UniProt P54098, A467T)
ATTRIBUTE_MEASURED: AC50
RESULT: > 100 µM

COMPOUND: O=S(=O)(Nc1csc(-c2ccccc2)n1)c1ccccn1
STUDY_SYSTEM: POLγA:A467T (Homo sapiens, UniProt P54098, A467T)
ATTRIBUTE_MEASURED: AC50
RESULT: > 100 µM

COMPOUND: Cc1cc(S(=O)(=O)Nc2csc(-c3ccn(C)n3)n2)c(C)cc1Cl
STUDY_SYSTEM: POLγA:A467T (Homo sapiens, UniProt P54098, A467T)
ATTRIBUTE_MEASURED: AC50
RESULT: > 10 µM

COMPOUND: Cc1cc(S(=O)(=O)Nc2ccc3c(c2)CC(=O)N3)c(C)cc1Cl
STUDY_SYSTEM: POLγA:A467T (Homo sapiens, UniProt P54098, A467T)
ATTRIBUTE_MEASURED: AC50
RESULT: 55 µM

COMPOUND: O=S(=O)(Nc1csc(-c2ccccc2)n1)c1cccnc1
STUDY_SYSTEM: POLγA:A467T (Homo sapiens, UniProt P54098, A467T)
ATTRIBUTE_MEASURED: AC50
RESULT: > 100 µM

COMPOUND: Cc1cc(S(=O)(=O)Nc2cccc(C(=O)N3CCN(C)CC3)c2)c(C)cc1Cl
STUDY_SYSTEM: POLγA:A467T (Homo sapiens, UniProt P54098, A467T)
ATTRIBUTE_MEASURED: AC50
RESULT: > 100 µM

COMPOUND: Cc1ccc(C)c(S(=O)(=O)Nc2cccc(C(=O)N3CCCCC3C#N)c2)c1 (stereo not shown)
STUDY_SYSTEM: POLγA:A467T (Homo sapiens, UniProt P54098, A467T)
ATTRIBUTE_MEASURED: AC50
RESULT: 60 µM

COMPOUND: Cc1cc(S(=O)(=O)Nc2csc(-c3ccncc3)n2)c(C)cc1Cl
STUDY_SYSTEM: POLγA:A467T (Homo sapiens, UniProt P54098, A467T)
ATTRIBUTE_MEASURED: AC50
RESULT: > 100 µM

COMPOUND: Cc1cc(S(=O)(=O)Nc2cccc(C(=O)N3CCCC34CC4)c2)c(C)cc1Cl
STUDY_SYSTEM: POLγA:A467T (Homo sapiens, UniProt P54098, A467T)
ATTRIBUTE_MEASURED: AC50
RESULT: 91 µM

COMPOUND: Cc1cc(S(=O)(=O)Nc2cccc(C(=O)N3CCC(F)(F)C3)c2)c(C)cc1Cl
STUDY_SYSTEM: POLγA:A467T (Homo sapiens, UniProt P54098, A467T)
ATTRIBUTE_MEASURED: AC50
RESULT: > 100 µM

COMPOUND: Cc1cc(S(=O)(=O)Nc2cccc(-c3nccs3)c2)c(C)cc1Cl
STUDY_SYSTEM: POLγA:A467T (Homo sapiens, UniProt P54098, A467T)
ATTRIBUTE_MEASURED: AC50
RESULT: 5 µM

COMPOUND: Cc1cc(S(=O)(=O)Nc2cccc(-c3ncc(C(=O)O)s3)c2)c(C)cc1Cl
STUDY_SYSTEM: POLγA:A467T (Homo sapiens, UniProt P54098, A467T)
ATTRIBUTE_MEASURED: AC50
RESULT: > 100 µM

COMPOUND: Cc1cc(NS(=O)(=O)c2cc(C)c(Cl)cc2C)cc(-c2ncc(C)s2)c1
STUDY_SYSTEM: POLγA:A467T (Homo sapiens, UniProt P54098, A467T)
ATTRIBUTE_MEASURED: AC50
RESULT: > 100 µM

COMPOUND: Cc1cc(S(=O)(=O)N[C@H]2CCN(c3ccccc3)C2)c(C)cc1Cl
STUDY_SYSTEM: POLγA:A467T (Homo sapiens, UniProt P54098, A467T)
ATTRIBUTE_MEASURED: AC50
RESULT: > 100 µM

COMPOUND: Cc1cc(S(=O)(=O)Nc2cnn(-c3ccccc3)n2)c(C)cc1Cl
STUDY_SYSTEM: POLγA:A467T (Homo sapiens, UniProt P54098, A467T)
ATTRIBUTE_MEASURED: AC50
RESULT: > 10 µM

COMPOUND: Cc1cc(S(=O)(=O)Nc2csc(-c3cnn(C)c3)n2)c(C)cc1Cl
STUDY_SYSTEM: POLγA:A467T (Homo sapiens, UniProt P54098, A467T)
ATTRIBUTE_MEASURED: AC50
RESULT: 6 µM

COMPOUND: Cc1cc(S(=O)(=O)Nc2nc(-c3ccccc3)cn2C)c(C)cc1Cl
STUDY_SYSTEM: POLγA:A467T (Homo sapiens, UniProt P54098, A467T)
ATTRIBUTE_MEASURED: AC50
RESULT: > 100 µM

COMPOUND: Cc1cc(S(=O)(=O)Nc2cc(F)cc(C(=O)N3CCC[C@H]3C)c2)c(C)cc1Cl
STUDY_SYSTEM: POLγA:A467T (Homo sapiens, UniProt P54098, A467T)
ATTRIBUTE_MEASURED: AC50
RESULT: 33 µM

COMPOUND: Cc1cc(S(=O)(=O)Nc2cc(C(=O)N3CCC[C@H]3C)ccc2F)c(C)cc1Cl
STUDY_SYSTEM: POLγA:A467T (Homo sapiens, UniProt P54098, A467T)
ATTRIBUTE_MEASURED: AC50
RESULT: > 100 µM

COMPOUND: O=S(=O)(Nc1csc(-c2ccccc2)n1)c1cccc2nccnc12
STUDY_SYSTEM: POLγA:A467T (Homo sapiens, UniProt P54098, A467T)
ATTRIBUTE_MEASURED: AC50
RESULT: > 100 µM

COMPOUND: Cc1cc(S(=O)(=O)Nc2cccc(C(=O)N3C[C@@H](F)C[C@H](F)C3)c2)c(C)cc1Cl
STUDY_SYSTEM: POLγA:A467T (Homo sapiens, UniProt P54098, A467T)
ATTRIBUTE_MEASURED: AC50
RESULT: > 100 µM

COMPOUND: Cc1ccc(C)c(S(=O)(=O)Nc2cccc(C(=O)N3CCSCC3C(N)=O)c2)c1 (stereo not shown)
STUDY_SYSTEM: POLγA:A467T (Homo sapiens, UniProt P54098, A467T)
ATTRIBUTE_MEASURED: AC50
RESULT: > 100 µM
